# credit: ChEMBL document CHEMBL1124581

# ASSAYED_TARGET: Peroxisomal bifunctional enzyme (Rattus norvegicus)
# EXPERIMENT_DESCRIPTION: Percent of liver peroxisomal enoyl-CoA hydratase activity in rats

| COMPOUND | ASSAYED_TARGET | Activity (uM min-1 mg-1) |
| --- | --- | --- |
| CC(C)(C/C=C/c1ccc(/C=C/CC(C)(C)CC(=O)O)cc1)CC(=O)O | Peroxisomal bifunctional enzyme (Rattus norvegicus) | 18.6 |
| CC(C)(C/C=C\c1ccc(/C=C/CC(C)(C)CC(=O)O)cc1)CC(=O)O | Peroxisomal bifunctional enzyme (Rattus norvegicus) | 10.5 |
| CC(C)(C/C=C\c1ccc(/C=C\CC(C)(C)CC(=O)O)cc1)CC(=O)O | Peroxisomal bifunctional enzyme (Rattus norvegicus) | 4.5 |
| CC(C)(CCCCCCCCCCC(C)(C)CC(=O)O)CC(=O)O | Peroxisomal bifunctional enzyme (Rattus norvegicus) | 10.7 |
| CC(C)(CCCc1ccc(CCCC(C)(C)CC(=O)O)cc1)CC(=O)O | Peroxisomal bifunctional enzyme (Rattus norvegicus) | 12 |
| CC(C)(CCCC1CCC(CCCC(C)(C)CC(=O)O)CC1)CC(=O)O (stereo unspecified) | Peroxisomal bifunctional enzyme (Rattus norvegicus) | 14 |

* * *

# System: Rattus norvegicus
# EXPERIMENT_DESCRIPTION: Hypolipidemic activity in rats by evaluating the plasma cholesterol level at a dose of 10 mg/kg for seven days
# Type: functional

| SMILES_CODE | Activity (mg) [%] |
| --- | --- |
| CC(C)(CCCCCCCCCCC(C)(C)CC(=O)O)CC(=O)O | 58 |
| CC(C)(CCCCCCCCCCCC(C)(C)CC(=O)O)CC(=O)O | 73 |
| CC(C)(CCCCCCCCCC(C)(C)CC(=O)O)CC(=O)O | 72 |
| CC(C)(CCCCCCCCCCCCC(C)(C)CC(=O)O)CC(=O)O | 73 |
| CC(C)(CCCCCCCCC(C)(C)CC(=O)O)CC(=O)O | 70 |

* * *

Below, each of the compounds is paired with its reported pIC50 value.
# Species: Rattus norvegicus
# EXPERIMENT_DESCRIPTION: Inhibition of lipid synthesis, by incorporation of 3H20 into 3-beta-hydroxysterols in cultured rat hepatocytes
# Type: functional
# CONDITION_SET: Hepatocyte, read-out: I50
pIC50: −log10 of the molar value.

| SMILES_CODE | pIC50 |
| --- | --- |
| CC(C)(CCCCCCCCCCCCCCC(C)(C)CC(=O)O)CC(=O)O | 3.52 |
| CC(C)(CCCCCCCCC(C)(C)CC(=O)O)CC(=O)O | 4.00 |
| CC(C)(CCCCCCCCCCC(C)(C)CC(=O)O)CC(=O)O | 4.10 |
| CC(C)(CCCCCCCCCCCCCCCCC(C)(C)CC(=O)O)CC(=O)O | 3.40 |
| CC(C)(CCCCCCC(C)(C)CC(=O)O)CC(=O)O | 3.70 |
| CC(C)(CCCCCCCCCCCCC(C)(C)CC(=O)O)CC(=O)O | 3.82 |
